self-cleavage reference
B1: LINE1-full (parent)
chain: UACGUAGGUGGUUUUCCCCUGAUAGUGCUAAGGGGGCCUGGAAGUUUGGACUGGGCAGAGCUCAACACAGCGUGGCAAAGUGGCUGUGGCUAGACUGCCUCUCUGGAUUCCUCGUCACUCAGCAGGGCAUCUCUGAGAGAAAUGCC

Variants of: B1
Test: self-cleavage, relative activity (ratio to wild type); higher = more cleavage; in vitro, sequencing; the parent is a self-cleaving ribozyme
Just the number, please, no unit attached.

G105A U115C | 1.54

Entry under review: A2G U29A . Reported self-cleavage?
1.14

Which self-cleavage value belongs to U13C G55U ?
0.22

State the recorded self-cleavage for this entry: U9A C116U
0.95

Please report the recorded self-cleavage for G32U U85C .
0.17

Consider the variant shown here: A77U C145A What is its recorded self-cleavage?
1.75

Please report the recorded self-cleavage for U112C G137A .
1.17

Query: self-cleavage; subject: A57U U134G
0.02

What does the data say about its self-cleavage? Entry: C51U A78G
1.09

Quick check: self-cleavage of U47G A141G ?
1.45

self-cleavage for C16A U104A ?
0.47

Returns the measured self-cleavage for the input variant. Input: U23G A140G
1.27

Looking for the measured self-cleavage of C16G C71G , can you help?
0.42

I'd like to know its self-cleavage. The variant in question is C3A U73A
0.64

Need self-cleavage, item U9A A64G
0.26

Consider the variant shown here: C17U U26A What is its recorded self-cleavage?
0.85

Tell me the measured self-cleavage of G34U A141G , please.
1.56

For U9C U52G , what is its reported self-cleavage?
1.69
